- studySystem: UniProt:Q06495
- assayComment: Npt2a activity cell based assay, membrane potential dye, CHO T-REx hNpt2a cells
- setupConditions: doxycycline-induced, depolarization by sodium phosphate influx, average or median values if tested more than once
Provide the reported IC50 of each item.
Respond with the bare value in nM.

[ask] Please indicate IC50 recorded for CCc1c(Nc2cc(-n3nc(C)c(C(C)(C)O)c3C)ncn2)n[nH]c1-c1ccc(F)cc1 [Example 181]
[reply] 1500

[ask] State, in one line, measured IC50 of COc1c(C)nn(-c2cc(Nc3c(C)c(-c4ccc(C(F)(F)F)nc4)nn3C)ncn2)c1C [Example 551]
[reply] 1900

[ask] Give the reported value of IC50 for this record: Cc1nn(-c2cc(Nc3c(C)c(-c4ccc(F)cc4)nn3CC3CC3)ncn2)c2c1C(O)(C(F)(F)F)CC2 (racemic) [Example 386]
[reply] 12

[ask] Give reported IC50 value for Cc1cc(C(F)F)n(-c2cc(Nc3n[nH]c(-c4ccc(F)cc4)c3C)ncn2)n1 [Example 66]
[reply] 87

* * *

- studySystem: human Npt2a (Homo sapiens, UniProt Q06495)
- Sequence (Q06495 whole entry): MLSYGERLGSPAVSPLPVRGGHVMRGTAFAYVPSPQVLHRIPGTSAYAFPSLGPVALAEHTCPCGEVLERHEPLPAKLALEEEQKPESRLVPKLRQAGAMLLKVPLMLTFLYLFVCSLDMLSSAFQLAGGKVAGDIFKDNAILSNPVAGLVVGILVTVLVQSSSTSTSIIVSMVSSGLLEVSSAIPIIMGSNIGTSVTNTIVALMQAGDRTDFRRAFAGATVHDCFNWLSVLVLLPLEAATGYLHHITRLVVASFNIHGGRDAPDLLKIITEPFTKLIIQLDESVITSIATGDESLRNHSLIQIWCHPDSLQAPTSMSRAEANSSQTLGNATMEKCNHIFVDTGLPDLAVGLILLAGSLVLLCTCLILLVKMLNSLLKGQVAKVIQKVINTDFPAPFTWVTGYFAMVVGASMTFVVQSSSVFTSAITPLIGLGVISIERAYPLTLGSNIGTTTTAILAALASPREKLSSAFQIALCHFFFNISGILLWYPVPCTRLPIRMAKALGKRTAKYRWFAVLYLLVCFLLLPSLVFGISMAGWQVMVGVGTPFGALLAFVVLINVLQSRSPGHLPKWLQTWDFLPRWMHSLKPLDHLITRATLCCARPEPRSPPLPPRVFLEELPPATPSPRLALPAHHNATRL
- assayComment: Npt2a activity cell based assay, membrane potential dye, CHO T-REx hNpt2a cells
- setupConditions: doxycycline-induced, depolarization by sodium phosphate influx, average or median values if tested more than once
Counter-ions that a name gives are not always drawn.
measuredQuantity: pIC50
Give only the number. pIC50 is defined as minus log10 of concentration in molar units.

[ask] Kindly indicate its recorded pIC50. Item: CCOC(=O)c1c(C)nn(-c2cc(Nc3c(OC)c(-c4ccc(C#N)cc4)nn3C)ncn2)c1C
[reply] 7.92

[ask] Give pIC50 for CCc1c(Nc2cc(-n3nc(C)c(C(=O)N4CCC4)c3C)ncn2)nn(C)c1-c1ccc(F)cc1
[reply] 6.40

[ask] Give the measured pIC50 for CCCN1Cc2cnn(-c3cc(Nc4c(C)c(-c5ccc(F)cc5)nn4CC4CC4)ncn3)c2C1
[reply] 6.04

[ask] Give me measured pIC50, please, for this compound: Cc1nn(-c2cc(Nc3c(C)c(-c4ccc(F)cc4)nn3CC3CC3)ncn2)c(C)c1C1(C(F)(F)F)OCCO1
[reply] 7.54

[ask] Identify the reported pIC50 for the following entry. CCc1c(-c2ccc(F)cc2)nn(C)c1Nc1cc(-n2nc(C)cc2C)ncn1
[reply] 7.30

[ask] Query pIC50 for CCOC(=O)c1c(C)nn(-c2cc(Nc3c(C)c(-c4ccc(F)cc4)nn3C)ncn2)c1C
[reply] 7.92

[ask] Fill in pIC50 for record COC(=O)c1ccc(-c2c(C)c(Nc3cc(-n4nc(C)cc4C)ncn3)nn2C)cc1
[reply] 7.60

[ask] Answer with reported pIC50 of COc1c(Nc2cc(-n3nc(C)c(Cl)c3C)ncn2)nn(C)c1-c1ccc(C#N)cc1
[reply] 7.77

[ask] Fill in pIC50 for record Cc1cc(C)n(-c2cc(Nc3c(Cl)c(-c4ccc(C#N)cc4)nn3CC3CC3)ncn2)n1
[reply] 7.68

[ask] State, in one line, measured pIC50 of CCc1c(Nc2cc(-n3ccc(C)n3)ncn2)nn(C)c1-c1ccc(F)cc1
[reply] 7.68

[ask] Report pIC50 for CCc1c(Nc2cc(-n3nc(C)cc3C)ncn2)nn(CC(F)F)c1-c1ccc(F)cc1
[reply] 7.80

[ask] // Input: Cc1nn(-c2cc(Nc3c(C)c(-c4ccc(F)cc4)nn3CC3CC3)ncn2)c(C)c1C(O)C(F)F (racemic) . Output its pIC50 only.
[reply] 7.74

[ask] Consider the compound Cc1nn(-c2cc(Nc3c(C)nn(-c4ccc(F)cc4)c3C)ncn2)c(C)c1Cl and give its recorded pIC50.
[reply] 8.12

[ask] For the compound CCc1c(-c2ccc(F)cc2)nn(CC(F)F)c1Nc1cc(-n2nc(C)c(Cl)c2C(F)F)ncn1 , report pIC50.
[reply] 6.77

[ask] Identify measured pIC50 associated with CCNc1c(C)nn(-c2cc(Nc3c(C)c(-c4ccc(F)cc4)nn3CC3CC3)ncn2)c1C [Example 501, trifluoroacetate]
[reply] 8.30

[ask] # return recorded pIC50 for input CCc1c(Nc2cc(-n3nc(C)c(C4(O)COC4)c3C)ncn2)nn(C)c1-c1ccc(F)cc1
[reply] 6.49

[ask] Give reported pIC50 value for COCCn1nc(-c2ccc(F)cn2)c(C)c1Nc1cc(-n2nc(C)cc2C(F)F)ncn1
[reply] 6.32

[ask] Please indicate pIC50 recorded for Cc1nn(-c2cc(Nc3c(C)c(-c4ccc(F)cn4)nn3CC3CC3)ncn2)c(C)c1C(C)(C)O
[reply] 5.81

[ask] Find the measured pIC50 of CCc1c(Nc2cc(-n3nc(C)cc3C(C)(C)O)ncn2)nn(C)c1-c1ccc(F)cc1 and report it.
[reply] 7.69

[ask] State, in one line, measured pIC50 of Cc1cc(C(F)F)n(-c2cc(Nc3c(C)c(-c4ccc(C(F)F)nc4)nn3C)ncn2)n1
[reply] 5.85

[ask] // fetch pIC50 given entry Cc1nn(-c2cc(Nc3nn(C)c(-c4ccc(F)cc4)c3C3CC3)ncn2)c2ccccc12
[reply] 8.27

[ask] Tell me pIC50 reported for CCc1c(-c2ccc(F)cc2)nn(Cc2nnn(C)n2)c1Nc1cc(-n2nc(C)cc2C)ncn1
[reply] 7.19

[ask] Tell me its pIC50 given Cc1cc(C)n(-c2cc(Nc3nn(C)c(-c4ccc(F)cc4)c3CN3CCCC3)ncn2)n1 as the entry.
[reply] 5.89

[ask] Please supply the value of reported pIC50 for the item CCc1c(Nc2cc(-n3cc(C(F)(F)F)cn3)ncn2)nn(C)c1-c1ccc(F)cc1
[reply] 7.68

[ask] # return recorded pIC50 for entry Cc1nn(-c2cc(Nc3c(C)c(-c4ccc(C#N)cc4)nn3CC3CC3)ncn2)c(C)c1C(C)O (racemic)
[reply] 7.77

[ask] Determine from records and report pIC50 for COc1c(-c2ccc(C#N)cc2)nn(C)c1Nc1cc(-n2nc(C)c(OC)c2C)ncn1
[reply] 7.60

[ask] Report measured pIC50; entry is COc1c(-c2ccc(C#N)cc2)nn(CC2CC2)c1Nc1cc(-n2nc(C)c(C(C)OC)c2C)ncn1 (single isomer, unassigned) [Example 335]
[reply] 7.29

[ask] Respond only with pIC50 recorded for CCc1c(-c2ccc(F)cc2)nn(CC(F)F)c1Nc1cc(-n2nc(C)cc2C)ncn1
[reply] 7.01

[ask] Query pIC50 for CCc1c(-c2ccc(C#N)cc2)nn(C)c1Nc1cc(-n2nc(C)cc2C(F)F)ncn1
[reply] 7.92

[ask] // fetch pIC50 given entry COCCn1nc(-c2ccc(C(F)F)cc2)c(C)c1Nc1cc(-n2nc(C)cc2C)ncn1
[reply] 7.77

* * *

- studySystem: human Npt2a (Homo sapiens, UniProt Q06495)
- Construct: expressed in transfected cells
- assayComment: Npt2a activity cell based assay, membrane potential dye, CHO T-REx hNpt2a cells
- setupConditions: doxycycline-induced, depolarization by sodium phosphate influx, average or median values if tested more than once
measuredQuantity: pIC50
In plain terms, pIC50 is the concentration in mol/L turned into minus its base-10 logarithm.

[ask] Item CCc1c(Nc2cc(-n3nc(C)cc3C)ncn2)nn(CCO)c1-c1ccc(F)cc1 : provide pIC50
[reply] 6.44

[ask] Specify measured pIC50 for Cc1nn(-c2ccc(C#N)cc2)c(C)c1Nc1cc(-n2nc(C)c(C(C)(C)O)c2C)ncn1 .
[reply] 6.82

[ask] Give a short answer stating reported pIC50 for Cc1nn(-c2cc(Nc3c(C)c(-c4ccc(F)cc4)nn3CC3CC3)ncn2)c(C)c1Br .
[reply] 8.52

[ask] Recall and state the measured pIC50 for CCOC(=O)c1c(C)nn(-c2cc(Nc3nn(CC4CC4)c(-c4ccc(F)cc4)c3C)ncn2)c1C .
[reply] 6.41

[ask] Fill in reported pIC50 for this entry: Cc1nn(-c2cc(Nc3c(C)c(-c4ccc(C#N)cc4)nn3C)ncn2)c(C)c1C(C)(C)O
[reply] 7.77

[ask] Using the record for CCOC(=O)c1c(C)nn(-c2cc(Nc3nn(C)c(-c4ccc(F)cc4)c3Cl)ncn2)c1C , state its measured pIC50.
[reply] 8.70

[ask] Indicate its recorded pIC50; the compound in question is CCc1c(-c2ccc(C#N)cc2)nn(C)c1Nc1cc(-n2nc(C)cc2C)ncn1
[reply] 7.74

[ask] Output pIC50 of CCc1c(Nc2cc(-n3nc(C)c(CCO)c3C)ncn2)nn(C)c1-c1ccc(F)cc1
[reply] 6.09

* * *

- studySystem: human Npt2a (Homo sapiens, UniProt Q06495)
- Construct: expressed in transfected cells
- assayComment: Npt2a activity cell based assay, membrane potential dye, CHO T-REx hNpt2a cells
- setupConditions: doxycycline-induced, depolarization by sodium phosphate influx, average or median values if tested more than once
For each entry below, report its pIC50 value.
Entry type: numeric. Quantity: pIC50, the -log10 of concentration in molar units.

[ask] Output measured pIC50 for this item: Cc1nn(-c2ccc(F)cc2)c(C)c1Nc1cc(-n2nc3ccccc3c2C)ncn1
[reply] 7.19

[ask] Give the reported value of pIC50 for this record: Cc1cc(C)n(-c2cc(Nc3c(C)nn(-c4ccc(C#N)cc4)c3C)ncn2)n1
[reply] 7.44

[ask] Identify measured pIC50 corresponding to Cc1cc(C)n(-c2cc(Nc3n[nH]c(-c4ccc(F)cc4F)c3Cl)ncn2)n1
[reply] 7.31

[ask] Check the records and state pIC50 for CCOC(C)c1c(C)nn(-c2cc(Nc3c(C)c(-c4ccc(C#N)cc4)nn3CC3CC3)ncn2)c1C (racemic)
[reply] 8.70

[ask] Answer with reported pIC50 of COc1ccc(-c2nn(CC3CC3)c(Nc3cc(-n4nc(C)cc4C)ncn3)c2C)cc1
[reply] 6.66

[ask] Quote pIC50 reported for COC(C)c1c(C)nn(-c2cc(Nc3c(C)c(-c4ccc(F)cc4)nn3CC3CC3)ncn2)c1C (single isomer, unassigned) [Example 327] please.
[reply] 8.40

[ask] Identify measured pIC50 associated with Cc1cc(C(C)(C)O)n(-c2cc(Nc3nn(C)c(-c4ccc(F)cc4)c3C)ncn2)n1
[reply] 7.48

[ask] Give the reported pIC50 for this compound. CCc1c(Nc2cc(-n3nc(C)c(Cl)c3C(F)F)ncn2)nn(CC(F)F)c1-c1ccc(F)cc1
[reply] 7.24
